Test system: HCV replicon 1AY93H
Assay Info: microbe, parasite or virus in culture
Type: cell-based, Hepatitis C virus (HCV)
Assay Context: read-out: 1A Y93H IC50; replicon 1AY93H; Replicon Assay A
Property: pIC50
Keep it numeric: pIC50 is minus log10 of the concentration in mol/L.

INPUT: Lab note: need pIC50 for COC(=O)NC(C(=O)N1CCC[C@H]1c1ncc(-c2ccc3c(c2)cc2n3C(c3ccc(C4CC4)s3)Oc3cc(-c4cnc([C@@H]5CCCN5C(=O)[C@@H](NC(=O)OC)C(C)C)[nH]4)cc(F)c3-2)[nH]1)C1CCO[C@H](C)C1 (single isomer, unassigned) [Compound 135] on HCV replicon 1AY93H, anyone have it?
OUTPUT: 11.40

INPUT: Same read-out for COC(=O)N[C@H](C(=O)N1CCC[C@H]1c1ncc(-c2cc(F)c3c(c2)OC(c2ccc(F)s2)n2c-3cc3cc(-c4cnc([C@@H]5CCCN5C(=O)[C@@H](NC(=O)OC)C(C)C)[nH]4)ccc32)[nH]1)C(C)C (single isomer, unassigned) [Compound 13] ?
OUTPUT: 8.68

INPUT: Same read-out for COC(=O)N[C@H](C(=O)N1CCC[C@H]1c1ncc(-c2cc(F)c3c(c2)OC(c2sc(C4CC4)cc2F)n2c-3cc3cc(-c4cnc([C@@H]5CCCN5C(=O)[C@@H](NC(=O)OC)C(C)C)[nH]4)ccc32)[nH]1)C(C)C (single isomer, unassigned) [Compound 65] ?
OUTPUT: 8.52

INPUT: Same read-out for CCc1ccc(C2Oc3cc(-c4cnc([C@@H]5CCCN5C(=O)[C@@H](NC(=O)OC)C(C)C)[nH]4)cc(F)c3-c3cc4cc(-c5cnc([C@@H]6C[C@H]7C[C@H]7N6C(=O)C(NC(=O)OC)C6CCOC(C)(C)C6)[nH]5)ccc4n32)s1 (single isomer, unassigned) [Compound 203] ?
OUTPUT: 9.92
